Origin of values: PubChem BioAssay (NCATS)

- Test system: PC15
- assay-notes: qHTS profiling for inhibitors of Plasmodium falciparum proliferation (AID 504749); further: nearly all actives have a fitted effect of over 60% in size; further: potency means the concentration at half of the fitted maximal effect
- condition-description: P. falciparum in erythrocytes, SYBR Green DNA, 72 h; series mostly up to 28.7 µM
Results filed as inconclusive are left out. Calls of active or inactive are those of the source. The call rests on the fitted dose curve; in most records, active means well fitted inhibition curve with a large enough effect; inconclusive means small, poorly fitted or top-dose-only effect; inactive means flat fitted curve, though single readings scatter.
assay-readout: Potency

Worked cases, Potency given:
O=C(O)c1cn(C2CC2)c2cc(N3CCNCC3)c(F)cc2c1=O: inactive
OC(Cn1cncn1)(Cn1cncn1)c1ccc(F)cc1F: inactive
CC(C)(C#N)c1cc(Cn2cncn2)cc(C(C)(C)C#N)c1: inactive
O=NN(CCCl)C(=O)NC1CCCCC1: inactive
COc1cc([C@@H]2c3cc4c(cc3[C@H](O)[C@H]3COC(=O)[C@H]23)OCO4)cc(OC)c1OC: 1.78 µM (active)
CN1CCN(c2c(F)cc3c(=O)c(C(=O)O)cn(CCF)c3c2F)CC1: inactive

Record request: Potency value, item COc1cc2c(Nc3ccc(Br)cc3F)ncnc2cc1OCC1CCN(C)CC1
7.08 µM (active)

O=c1oc2c(O)c(O)cc3c(=O)oc4c(O)c(O)cc1c4c23 , same question.
6.31 µM (active)

Same again, this time with NCCCC(O)(P(=O)(O)O)P(=O)(O)O
inactive

====

- System: 3D7
- assay-notes: qHTS profiling for inhibitors of Plasmodium falciparum proliferation (AID 504749); further: nearly all actives have a fitted effect of over 60% in size
- condition-description: P. falciparum in erythrocytes, SYBR Green DNA, 72 h; series mostly up to 28.7 µM
Inconclusive results are not listed. The source made the active and inactive calls. The call rests on the fitted dose curve; in most records, active means well fitted inhibition curve with a large enough effect; inconclusive means small, poorly fitted or top-dose-only effect; inactive means flat fitted curve, though single readings scatter.
# valid calls are active, inactive; nothing else

NCCCC(O)(P(=O)(O)O)P(=O)(O)O: inactive
CN1CCN(c2c(F)cc3c(=O)c(C(=O)O)cn(CCF)c3c2F)CC1: inactive
CC1=CC(=O)c2ccccc2C1=O: active
CC1=NN(c2ccccc2)C(=O)C1: inactive
Cc1cccc(Nc2ccncc2S(=O)(=O)NC(=O)NC(C)C)c1: inactive
COc1ccc(C(=O)CC(=O)c2ccc(C(C)(C)C)cc2)cc1: inactive
CCCc1cc(C(N)=S)ccn1: inactive
COc1c(N2CCNC(C)C2)c(F)cc2c(=O)c(C(=O)O)cn(C3CC3)c12 (stereo unspecified): inactive
C[C@]12C=CC(=O)C=C1CC[C@@H]1[C@@H]2C(=O)C[C@@]2(C)[C@H]1CC[C@]2(O)C(=O)CO: inactive
CC(C)(Sc1cc(C(C)(C)C)c(O)c(C(C)(C)C)c1)Sc1cc(C(C)(C)C)c(O)c(C(C)(C)C)c1: active

Here's the next entry for you.
What outcome does the record of this test show for COc1cnc(NS(=O)(=O)c2ccc(N)cc2)nc1 ?
inactive

====

- assay-notes: Quantitative High-Throughput drug screen in 47 multiple myeloma cell lines against the NCATS MIPE library collection: KMM1_JCRB cell viability assay (AID 1918960); further: nearly all actives have a fitted effect of over 30% in size
- condition-description: KMM1 myeloma viability, CellTiter-Glo ATP luminescence, 48 h; series mostly up to 45.8 µM
Results filed as inconclusive are left out. The source made the active and inactive calls. Calls come from the whole dose curve; as a rule, active = well fitted cell-killing curve with a large enough effect; inconclusive = small, poorly fitted or top-dose-only effect, or effect the other way; inactive = no such curve, though single readings can be large or run the other way.
Choose one outcome from this list and give only that: Yes = active, No = inactive

CCc1cc(C(N)=S)ccn1: No
COC(c1ccccc1)(c1ccccc1)[C@H](Oc1nc(C)cc(C)n1)C(=O)O: No
C[C@@H]1CN(c2c(F)c(N)c3c(=O)c(C(=O)O)cn(C4CC4)c3c2F)C[C@H](C)N1: No
COc1cc2ncnc(Nc3cccc(Cl)c3)c2cc1OC: Yes
CC[C@H](C)C(=O)O[C@H]1C[C@@H](C)C=C2C=C[C@H](C)[C@H](CC[C@@H]3C[C@@H](O)CC(=O)O3)[C@H]21: No
Cn1nnc2c(C(N)=O)ncn2c1=O: No

Could you check what this test reported for CNS(=O)(=O)Cc1ccc2[nH]cc(CCN(C)C)c2c1 ?
No

Would you mind doing NNC(=O)c1ccncc1 as well?
No

What do you get for Nc1nc(F)nc2c1ncn2[C@@H]1O[C@H](CO)[C@@H](O)[C@@H]1O ?
Yes

Note, next up: Cc1onc(-c2ccccc2Cl)c1C(=O)N[C@@H]1C(=O)N2[C@@H]1SC(C)(C)[C@@H]2C(=O)O
No

Next molecule: Cc1nnc(NS(=O)(=O)c2ccc(N)cc2)s1
Yes

====

- assay-notes: qHTS of pediatric cancer cell lines to identify multiple opportunities for drug repurposing: Primary screen for TC32 cells (AID 1347089); further: on the % scale 0 is the no-effect control and ±100 the full control effect; nearly all actives have a fitted effect of over 60% in size
- condition-description: TC32 Ewing sarcoma viability, CellTiter-Glo luminescence, 48 h; series mostly up to 45.8 µM
Records with an inconclusive call do not appear. Activity calls are given as the source filed them. Calls follow the shape of the dose curve; as a rule, active = well fitted cell-killing curve with a large enough effect; inconclusive = small, poorly fitted or top-dose-only effect; inactive = flat fitted curve, though single readings scatter.
Your reply should match one of these outcome classes. active, inactive

Sample answers from the record:
CNC1CCCN(c2c(F)cc3c(=O)c(C(=O)O)cn(C4CC4)c3c2OC)C1 (stereo not drawn): inactive
CCCN[C@H]1CCc2nc(N)sc2C1: inactive
O=P(O)(O)C(O)(Cc1cccnc1)P(=O)(O)O: inactive
Cn1c(=O)c2c(ncn2CC(O)CO)n(C)c1=O (stereo not drawn): inactive
CCc1cc(C(N)=S)ccn1: inactive

State the result this test recorded for C[C@@H]1C[C@H]2[C@@H]3CCC4=CC(=O)C=C[C@]4(C)[C@@]3(Cl)[C@@H](O)C[C@]2(C)[C@@]1(OC(=O)c1ccco1)C(=O)CCl .
inactive

Please answer likewise for CCN(CC)CC#CCOC(=O)C(O)(c1ccccc1)C1CCCCC1 (stereo not drawn)
inactive

Now give it for CN1CCN(c2c(F)cc3c(=O)c(C(=O)O)cn(CCF)c3c2F)CC1 too.
inactive

Query O=S(=O)(c1cccc2cnccc12)N1CCCNCC1 next
inactive

What about NC(N)=NC(N)=NCCc1ccccc1 ?
inactive

Thanks! And Cc1ccc(S(=O)(=O)N[C@@H](Cc2ccccc2)C(=O)CCl)cc1 ?
inactive

Entry to check: NC(=O)c1ccc2[nH]ccc2c1
inactive

# iterate: NCCCC(O)(P(=O)(O)O)P(=O)(O)O
inactive

Then CC(C(=O)O)c1ccc2c(c1)CC(=O)c1ccccc1S2 (stereo not drawn) ?
inactive

====

- assay-notes: qHTS for Inhibitors of ATXN expression: Validation (AID 588378); further: nearly all actives have a fitted effect of over 75% in size
- condition-description: cell-based ATXN2 expression reporter assay, luminescence; series mostly up to 57.1 µM
Records with an inconclusive call do not appear. Activity calls are given as the source filed them. The call rests on the fitted dose curve; in most records, active means well fitted inhibition curve with a large enough effect; inconclusive means small, poorly fitted or top-dose-only effect; inactive means no such curve, though single readings can be large or run the other way.
Answer with one of the outcomes given here: yes = active, no = inactive

Cc1ccc(S(=O)(=O)N[C@@H](Cc2ccccc2)C(=O)CCl)cc1: yes
CCN1CCCC1CNC(=O)c1cc(S(N)(=O)=O)ccc1OC (stereo not drawn): no

Consider the record given below.
// return assay outcome for CC(=O)[C@H]1CC[C@H]2[C@@H]3CCC4=CC(=O)CC[C@]4(C)[C@H]3CC[C@]12C
no

====

# max response per entry
- System: HaCat
- assay-notes: Cytotoxic Profiling of Annotated Libraries Using Quantitative High-Throughput Screening (AID 1296008); further: on the % scale 0 is the no-effect control and ±100 the full control effect; nearly all actives have a fitted effect of over 60% in size
- condition-description: Five cell lines viability, CellTiter-Glo ATP luminescence, 48-72 h; active compounds read low
Results filed as inconclusive are left out.
Respond numerically; units are % and should not be typed.

Observe how each entry below is paired with its result.
CCCN[C@H]1CCc2nc(N)sc2C1: 3.55
CC1=C(C(=O)O)N2C(=O)[C@@H](NC(=O)C(N)c3ccccc3)[C@H]2SC1 (some centres not stated): 3
CO[C@@H]1[C@@H](OC(N)=O)[C@@H](O)[C@H](Oc2ccc3c(O)c(NC(=O)c4ccc(O)c(CC=C(C)C)c4)c(=O)oc3c2C)OC1(C)C: 0.197

For C#CCN[C@@H]1CCc2ccccc21 , what is its reported max response?
0.653

====

- assay-notes: Quantitative High-Throughput drug screen in 47 multiple myeloma cell lines against the NCATS MIPE library collection: Karpas620_DSMZ cell viability assay (AID 1918959); further: nearly all actives have a fitted effect of over 30% in size
- condition-description: Karpas620 myeloma viability, CellTiter-Glo ATP luminescence, 48 h; series mostly up to 45.8 µM
- Excerpt: PI: Beverly A. Mock Ph.D. Laboratory of Cancer Biology and Genetics, Center for Cancer Research, National Cancer Institute, National Institute of Health, Bethesda, Maryland […] 5; Detector; 425V; Luminescence; Viewlux PerkinElmer. […] 1. […] Briefly, the corresponding myeloma cell lines were screened in 1,536-well plates with 500 cells, 5-uL per well for inhibition of cell viability (assessed by measuring ATP levels with CellTiterGlo). […]
Inconclusive results are not listed. The source made the active and inactive calls. Calls follow the shape of the dose curve; as a rule, active = well fitted cell-killing curve with a large enough effect; inconclusive = small, poorly fitted or top-dose-only effect, or effect the other way; inactive = no such curve, though single readings can be large or run the other way.
Would you mind answering with one of these outcomes? active, inactive

Please review the following examples before continuing.
Cc1noc(NS(=O)(=O)c2ccc(N)cc2)c1C: inactive
Cc1onc(-c2ccccc2Cl)c1C(=O)N[C@@H]1C(=O)N2[C@@H]1SC(C)(C)[C@@H]2C(=O)O: inactive

What did the test return for CC(C)(Sc1cc(C(C)(C)C)c(O)c(C(C)(C)C)c1)Sc1cc(C(C)(C)C)c(O)c(C(C)(C)C)c1 ?
inactive

Please do the same for CC(=O)Oc1ccccc1C(=O)Nc1ncc([N+](=O)[O-])s1 as well.
active
